- Test system: RAW-Dual (murine macrophage reporter line)
- Assay procedure: viability score (confluency relative to resting cells, overnight) (fraction); higher = more viable, active = viable (0.7 or more)
- Stated conditions: modulator concentration 10 µM
Please respond with reported viability score for every item in the list.
Could you respond with only the numeric value?

Inquiry: For O=C(C=Cc1ccccc1)NC(NC(=S)Nc1cccc2cccnc12)C(Cl)(Cl)Cl (stereo unspecified) , write its viability score.
Reply text: 1.01

Inquiry: Supply measured viability score of Brc1ccc2ncnc(Nc3ccccc3)c2c1 in your reply.
Reply text: 1

Inquiry: Look up and state reported viability score for COCCNCCOc1cc(C)c(Cl)c(C)c1
Reply text: 0.974

Inquiry: Answer with the recorded viability score for the compound listed here: Cl.Clc1ccc2nsnc2c1NC1=NCCN1
Reply text: 1

Inquiry: Determine its reported viability score: C[C@H](Cc1cc2c(c(C(N)=O)c1)N(CCCO)CC2)NCCOc1ccccc1OCC(F)(F)F
Reply text: 0.998

Inquiry: Annotate the compound CN(C(=O)c1cncc(F)c1)C1CN(c2ccc3nnc(C4CC4)n3n2)C1 with its measured viability score.
Reply text: 1

====

- System: RAW-Dual (murine macrophage reporter line)
- Assay procedure: IRF reporter (Lucia luciferase) activity fold change vs agonist alone; higher = enhanced IRF activity
- Stated conditions: modulator concentration 10 µM; agonist: MPLA […]
Respond with 1 for IRF reporter values of 0.9 and above, -1 for values below.

Inquiry: Form field: IRF reporter at least 0.9? Entry: O=c1[nH]c(=O)n(C2CC(O)C(CO)O2)cc1F (stereo unspecified)
Reply text: -1

Inquiry: Could you please find out whether Nc1nccs1 has IRF reporter that meets 0.9 or exceeds it?
Reply text: 1

Inquiry: Identify whether the reported IRF reporter of the following compound is 0.9 or greater: CN1CCN(CCOc2cc(OC3CCOCC3)c3c(Nc4c(Cl)ccc5c4OCO5)ncnc3c2)CC1
Reply text: 1

Inquiry: Kindly determine if IRF reporter recorded for O=C(NCC(O)Cc1ccccc1)Nc1ccc(F)cc1 (stereo unspecified) is above or exactly 0.9.
Reply text: 1

====

- System: RAW-Dual (murine macrophage reporter line)
- Assay procedure: IRF reporter (Lucia luciferase) activity fold change vs agonist alone; higher = enhanced IRF activity
- Stated conditions: modulator concentration 10 µM; agonist: 3'3'-cGAMP 10 ug/mL
Kindly supply the reported IRF reporter values for the records listed here.
// keep it numeric: no unit symbol after the value

Inquiry: Identify the reported IRF reporter for the following entry. CSCCC(NC(C)=O)C(=O)NC1CCN(c2nc(C)nc3c2CCCC3)CC1 (stereo not given)
Reply text: 0.957

Inquiry: For the compound CN1CC(=O)N2[C@H](c3ccc4c(c3)OCO4)c3[nH]c4ccccc4c3C[C@@H]2C1=O , give its measured IRF reporter value.
Reply text: 0.869

Inquiry: Identify measured IRF reporter associated with Cc1cc(Nc2cc(N3CCN(C)CC3)nc(Sc3ccc(NC(=O)C4CC4)cc3)n2)n[nH]1
Reply text: 0.136

Inquiry: Quick one: give measured IRF reporter for CN1CCC(=C2c3ccccc3CCn3c(C=O)cnc32)CC1
Reply text: 0.875

Inquiry: Return the recorded IRF reporter value; entry: O=C(Nc1ccc(NS(=O)(=O)c2ccccc2)cc1)c1ccco1
Reply text: 0.879

====

- System: RAW-Dual (murine macrophage reporter line)
- Assay procedure: IRF reporter (Lucia luciferase) activity fold change vs agonist alone; higher = enhanced IRF activity
- Stated conditions: modulator concentration 10 µM; agonist: MPLA […]
Readout label: IRF reporter
Would you mind answering with just the numeric figure?

Inquiry: Quote IRF reporter reported for Cl.N=C(N)NCCC[C@H](N)C(=O)O please.
Reply text: 1.2

Inquiry: Supply reported IRF reporter belonging to this molecule: COc1ccc(C(=O)Nc2cccc([N+](=O)[O-])c2)cc1I
Reply text: 1.04

Inquiry: Fill in reported IRF reporter for this entry: OCCCNCC(O)Cn1c2ccc(Br)cc2c2cc(Br)ccc21 (configuration not stated)
Reply text: 1.91

Inquiry: # return recorded IRF reporter for input NCCCCC(=O)O.O=C1c2ccccc2C(=O)C1[N+](=O)[O-]
Reply text: 1.31

Inquiry: Give recorded IRF reporter. NS(=O)(=O)c1ccc(F)cc1
Reply text: 1.23

Inquiry: Give me measured IRF reporter, please, for this molecule: Cc1nccn1CC1CCc2c(c3ccccc3n2C)C1=O.Cl (configuration not stated)
Reply text: 1.22

Inquiry: Supply measured IRF reporter of CCCCNc1ccc(C(=O)OCCN(C)C)cc1.Cl in your reply.
Reply text: 1.09

Inquiry: // fetch IRF reporter given entry CC1=C(C(=O)Nc2cccc(C)n2)C(c2cccs2)C2=C(CC(C)(C)CC2=O)N1 (configuration not stated)
Reply text: 1.25

Inquiry: Could you please provide reported IRF reporter for COc1ccc(Br)c(C(=O)N2CCCC2CS(=O)(=O)c2ccccc2)c1 (configuration not stated) ? Thanks!
Reply text: 0.876

Inquiry: Tell me its IRF reporter given COc1ccc2cc(Br)ccc2c1CC(=O)O as the entry.
Reply text: 1.33

Inquiry: Given the molecule O=C(Nc1cccc(Cl)c1Cl)c1cc2nc(-c3ccco3)cc(C(F)(F)F)n2n1 , write its reported IRF reporter.
Reply text: 1.21

Inquiry: Answer with the recorded IRF reporter of NC(=O)c1cc2ccccc2oc1=NCc1ccccc1 only.
Reply text: 1.07
